Test: Solvolytic stability of difluoro-dioxaborinins by 19F NMR in water/DMSO
Assay type: physicochemical
Settings: solvolysis half-life, 19F NMR, 90% H2O/10% DMSO (50 M H2O), 25 °C
parameter: Stability (t1/2, h) 90% H2O/10% DMSO

Entry CC1=C2CCCCC2=[O+][B-](F)(F)O1 [Compound 15] : reported Stability (t1/2, h) 90% H2O/10% DMSO = ? 6.75

Given CCC1=C(C)O[B-](F)(F)[O+]=C1C [Compound 3] , state its recorded Stability (t1/2, h) 90% H2O/10% DMSO. 15.2

Give the measured Stability (t1/2, h) 90% H2O/10% DMSO of CC1=[O+][B-](F)(F)OC(C)=C1C [Compound 2] . 17.1

a. CCOC(=O)CCC1=C(C)O[B-](F)(F)[O+]=C1C [Compound 6]
b. CC1=CC(C)=[O+][B-](F)(F)O1 [Compound 1]
Please compare: a and b . Report which one has the smaller Stability (t1/2, h) 90% H2O/10% DMSO value. The response must carry the label of the picked entry. b
(b: 2.73 h, a: 5.19 h)
